- test summary: yeast display, Sf9 membrane polyspecificity reagent, FACS + sequencing; frameworks hold sequencing errors
measured metric: polyreactivity (PSR sort gate)

| sequence record | measured metric | result |
| --- | --- | --- |
| QVQLVESGGGLVQAGGSLRLSAATGSTLAGKTMGWYRQASRKERELVAAINDSGGSTYYADSVKGRFTISRDNAKNSVYLQMNSLKPEDTAVYYCNADGYAYIEDGYDYWGQCTQVTVSS | polyreactivity (PSR sort gate) | low polyreactivity |
| QVQLVESGGGLVQAGASLRLSCAASGRIFARYAMGWYRQAPGKERELVASITRSGGSTYYADSVKGRYTISRDNAKNTVYLQMNSLKPEDTAVYYCAARYGRVRDVIPYDYWGQGTQVTVSS | polyreactivity (PSR sort gate) | high polyreactivity |
| QVQLVESVGGLVQAGGSLRLSCAASGRIFWGYDMGWYRQAPGKEREFVAAISSGGGRTYYADSVKGRFTISRDNAKNTVYLQMNSLKPEDTAVYYCNADSGSYWVPRGYEYWGQGTRVTVSS | polyreactivity (PSR sort gate) | low polyreactivity |
| QVQLVESGGGLVQAGGSLRFSCAASGRTFVWYTMGWYRQAPGKERELVAAISSGGSTSYADSVKGRFTISRDNAKNTVYLQMNSLKPEDTAVYYCNAVWYVRYSGMDYWGQGTQVTVSS | polyreactivity (PSR sort gate) | high polyreactivity |
| QVQLVESGGGLVQAGGSLRLSCAASGSTFYTYAMGWYRQAPGKERELVAAISWSGGSTYYADSVKGRFTISRDIAKNTVYLQMNSLKPEDTAVYYCAKKQVTTDVSSETFVLEMDYWGQGTQVTVSS | polyreactivity (PSR sort gate) | low polyreactivity |
| QVQLVESGGGLVQAGGSLRLSCAASGFIFYYNVMGWYRQAPGKERELVAAIRYRGTITYYADSVKGRFTISRDNAKNTVYLQMNSLKPEDTAVYYCARRQRNYYRSSPGGDYWGQGTQVTVSS | polyreactivity (PSR sort gate) | low polyreactivity |
| QVQLVESGGGLVQAGGSLRLSCAASGSIFGLYAMGWYRQAPGKERELVAAINWNGGDTYYADSVKGRFTISRDNAKNTVYLQMNSLKPEDTAVYYCAAELYRYGIRRRHYDYWGQGTLVTVSS | polyreactivity (PSR sort gate) | low polyreactivity |
| QVQLVESGGGLVQAGGSLRLSCAASGRTFSRNAMGWYRQAPGKERELVATITSDGSTNYADSVKGRFTISRDNAKITVYLQMNSLKPEDTAVYYCAAGEQSSIIGAHDYWGQGTQVTVSS | polyreactivity (PSR sort gate) | low polyreactivity |

Task item: Look up polyreactivity (PSR sort gate) for this sequence: "QVQLVESGGGLVQAGGSLRLSCAAYGSIFSWNAMGWYIQAPRKERELVAGITWSGGGTSYADSVKGRFTISRDNAKNTVYLQMNSLKPEDTAVYYCAKEWIFEFNYWGQGTQVTVSS"
Reply: low polyreactivity

Task item: Look up polyreactivity (PSR sort gate) for this sequence: "QVQLVESGGGLVQAGGRLRLSCAASGFTFPRYAMGWYRQAPGKERELVAAISRGGSTNYADSVKGRFTISRDNAKNTVYLQMNSLKPEDTAVYDCAKVLRRWPDPAWGMDYWGQGTQVTVSS"
Reply: high polyreactivity

Task item: Look up polyreactivity (PSR sort gate) for this sequence: "QVQLVESGGGLVQAGGSLRLSCAASGRTFFDYTMGWYRQAPGKERELVAAITGGDGSTYYADSVKGRFTISRDNAKNTVYLQMNSLKPEDTAVYYCAAGYTAGSYSLDADYYWGQGTQVTVSS"
Reply: low polyreactivity
